- MEASURED_ON: LAP-TGFβ1抗原 (coated antigen) (UniProt P01137 30-390, limits assumed)
- Sequence (P01137 30-390 limits assumed): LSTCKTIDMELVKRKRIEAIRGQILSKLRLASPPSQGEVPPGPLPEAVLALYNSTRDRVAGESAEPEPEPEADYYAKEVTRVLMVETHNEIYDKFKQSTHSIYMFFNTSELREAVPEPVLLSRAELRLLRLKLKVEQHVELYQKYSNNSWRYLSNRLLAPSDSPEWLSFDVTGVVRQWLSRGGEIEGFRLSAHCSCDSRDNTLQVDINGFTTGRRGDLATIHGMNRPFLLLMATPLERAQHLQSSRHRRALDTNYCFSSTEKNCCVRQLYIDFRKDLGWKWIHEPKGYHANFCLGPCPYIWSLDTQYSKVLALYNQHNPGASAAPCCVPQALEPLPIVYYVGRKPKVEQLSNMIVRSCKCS
- ASSAY_NAME: competition ELISA on coated LAP-TGFβ1; competitor biotin-labelled 28G11 at 1 μg/ml
ATTRIBUTE_MEASURED: IC50
Write the quantity with the unit trailing the number.

// Input: 抗LAP单克隆抗体 A-5 (全抗, mouse IgG2a / mouse Ck) (antibody, V domains shown, Full antibody made in HEK293E from vector pTSE) VH: EVQLQQSGAVLVRPGDSVKLSCKASGYSFTRSWINWVKQRPGQGLEWIGNIYPSDSYTNYNQKFKDKATLTVDKSSSTAYMQLRSPTSEDSAVYYCTNYYLYYFDYWGQGTTLTVSS VL: DIVLTQSPSSLAVSTGEKVTMSCKSSQSLLNSRTRKSYLAWYQQKPGQSPKLLIYWTSIRESGVPDRFTGNGSGTDFTLTISSVQAEDLAVYYCKQSYNLFTFGGGTKLEMKR . Output its IC50 only.
0.0526 µg/mL

// Input: 抗LAP单克隆抗体 A-3 (全抗, mouse IgG2a / mouse Ck) (antibody, V domains shown, Full antibody made in HEK293E from vector pTSE) VH: EVKLQESGAELVMPGASVKMSCKASGYTFTDYWMHWVKQRPGQGLEWIGAIDTSDSYTSYNQKFKGKATLTVDESSSTAYMQLSSLTSEDSAVYYCARKALSGYFDVWGAGTTVTVSS VL: DIVLTQTPSSLSASLGGKVTITCKASQDIYKYIAWYQHKPGKGPRLLIHYTSTLQPGIPSRFSGSGSGRDYSFSISNLEPEDIATYYCLQYDNLRTFGGGTKLEIKA . Output its IC50 only.
0.00695 µg/mL

// Input: 抗LAP单克隆抗体 A-2 (全抗, mouse IgG2a / mouse Ck) (antibody, V domains shown, Full antibody made in HEK293E from vector pTSE) VH: EVQLEESGAELVRSGASVKLSCTASGFNFNDYYMHWVKQRPEQGLEWIGWIDPENGDTEYAPKFQVKATMTADTSSNTAYLHLSSLASEDTAVYYCNTPTEDMDYWGQGTSVTVSS VL: DIVMTQSPSSLAVSAGEKVTMSCKSSQSLFNSRTRKNYLAWYQQKPGQSPKLLIYWASTRGSGVPDRFTGSGSGTDFTLTISSVQAEDLAVYYCKQSYNLLTFGAGTKLELKA . Output its IC50 only.
0.0764 µg/mL
